# System: MYB mRNA
# experiment: Gene panel canonical junction qPCR assay, decrease in CJ mRNA, Table 3
# Type: cell-based
# experimentalContext: decrease in canonical junction (CJ) mRNA, gene panel qPCR, Table 3
# Experimental: Compounds described herein were used to modulate RNA transcript abundance in cells. The expression of a target mRNA was measured by detecting the formation of an exon-exon junction in the canonical transcript (CJ). A compound mediated exon-inclusion event was detected by observing an increase in formation of a new junction with an alternative exon (AJ). Real-time qPCR assays were used to detect these splicing switches and interrogate the potency of various compounds towards different target genes. […]

{"compound": "Cc1cn2cc(NC(=O)c3c(C)cc(N4CCC(NC5CC5)CC4)c4cn(C)nc34)nc2c(C)n1", "assayTarget": "MYB mRNA", "IC50": "> 10000 nM"}
{"compound": "Cc1cn2cc(NC(=O)c3ccc(OC4CCNCC4)c4cn(C)nc34)nc2c(C)n1", "assayTarget": "MYB mRNA", "IC50": "100 to 1000 nM"}
{"compound": "CCNC1CC2(C1)CN(c1ccc(C(=O)Nc3cc4cn(C)nc4cc3OC)c3nn(C)cc13)C2", "assayTarget": "MYB mRNA", "IC50": "100 to 1000 nM"}
{"compound": "CCNC1CCN(c2cc(F)c(C(=O)Nc3cc(F)c4nc(C)cn4c3)c3[nH]ncc23)CC1", "assayTarget": "MYB mRNA", "IC50": "100 to 1000 nM"}
{"compound": "CCNC1CCN(c2ccc(C(=O)Nc3cc(C(N)=O)c4nc(C)cn4c3)c3nn(C)cc23)CC1 [Compound 317, 2,2,2-trifluoroacetate]", "assayTarget": "MYB mRNA", "IC50": "> 10000 nM"}
{"compound": "COc1cc2nn(C)cc2cc1NC(=O)c1ccc(NC2CCCNCC2)c2cn(C)nc12 (stereo not shown)", "assayTarget": "MYB mRNA", "IC50": "1000 to 10000 nM"}
{"compound": "Cc1cn2cc(NC(=O)c3c(F)cc(N4CCC(NC5CC5)CC4)c4cn(C)nc34)c(OCC3CC3)c(F)c2n1", "assayTarget": "MYB mRNA", "IC50": "< 100 nM"}

----------
We begin with a simple list: items and their reported pIC50.
# Tested on: MYB mRNA
# experiment: Gene panel canonical junction qPCR assay, decrease in CJ mRNA, Table 3
# Assay type: cell-based
# experimentalContext: decrease in canonical junction (CJ) mRNA, gene panel qPCR, Table 3
pIC50: −log10 of the molar value.

{"molecule": "COc1cn2nc(C)nc2cc1NC(=O)c1ccc(N2CCC(NC3CC3)CC2)c2cn(C)nc12 [Compound 573]", "pIC50": "< 5.00"}
{"molecule": "CCNC1CCN(c2cc(F)c(C(=O)Nc3cn4cc(C)nc4c(Cl)c3OC)c3nn(C)cc23)CC1 [Compound 357]", "pIC50": "> 7.00"}
{"molecule": "COc1cc2nn(C)c(C)c2cc1NC(=O)c1c(F)cc(N2CCC(NC3CC3)CC2)c2cn(C)nc12 [Compound 418]", "pIC50": "5.00 to 6.00"}
{"molecule": "CCNC1(C)CCN(c2cc(F)c(C(=O)Nc3cn4cc(C)nc(C)c4n3)c3nn(C)cc23)CC1 [Compound 375]", "pIC50": "> 7.00"}
{"molecule": "Cc1cn2cc(NC(=O)c3c(F)cc(N4CCC(NC5CC5)CC4)c4cn(C)nc34)nc2cn1 [Compound 404]", "pIC50": "> 7.00"}
{"molecule": "Cc1cn2cc(NC(=O)c3ccc(N4CCC(N)CC4)c4cn(C)nc34)c(F)c2c(C)n1 [Compound 580]", "pIC50": "5.00 to 6.00"}
{"molecule": "CCNC1CC2(C1)CN(c1ccc(C(=O)Nc3cn4cc(C)nc(C)c4n3)c3nn(C)cc13)C2 [Compound 576]", "pIC50": "< 5.00"}
